test system: NCI-H460; test: Cytotoxicity against human NCI-H460 cells at 10 uM after 48 hrs by SRB assay; type: functional; conditions: NCI-H460, 48 h, read-out: GI
Binary call on inhibition of growth at 10 µM: 1 (yes) from 20% upward, 0 (no) beneath that.

Consider the following illustrative entries.
structure=Cc1nc2cc(Nc3nc(Nc4ccc(F)cc4)nc(Nc4ncccn4)n3)ccc2n1Cc1ccccc1 category="0 (no)"
structure=Cc1nc2ccc(Nc3nc(NCCN)nc(Nc4ccc(F)cc4)n3)cc2n1Cc1ccccc1 category="1 (yes)"
structure=Cc1nc2ccc(Nc3nc(NCCO)nc(Nc4ccc(F)cc4)n3)cc2n1Cc1ccccc1 category="0 (no)"
structure=Cc1nc2ccc(Nc3nc(NCCN4CCOCC4)nc(Nc4ccc(F)cc4)n3)cc2n1Cc1ccccc1 category="1 (yes)"
structure=Cc1nc2cc(Nc3nc(Nc4ccc(F)cc4)nc(-c4ccccc4)n3)ccc2n1Cc1ccccc1 category="0 (no)"

## Input Item Cc1nc2cc(Nc3nc(Nc4ccc(F)cc4)nc(-c4cccs4)n3)ccc2n1Cc1ccccc1 with inhibition of growth at 10 µM of 20% or above?
## Output 1 (yes)

## Input Item Cc1nc2cc(Nc3nc(NCCN)nc(Nc4ccc(F)cc4)n3)ccc2n1Cc1ccccc1 with inhibition of growth at 10 µM of 20% or above?
## Output 0 (no)

## Input Item Cc1nc2cc(Nc3nc(Cl)nc(Nc4ccc(F)cc4)n3)ccc2n1Cc1ccccc1 with inhibition of growth at 10 µM of 20% or above?
## Output 0 (no)

## Input Item COc1ccc(-c2nc(Nc3ccc(F)cc3)nc(Nc3ccc4c(c3)nc(C)n4Cc3ccccc3)n2)cc1 with inhibition of growth at 10 µM of 20% or above?
## Output 1 (yes)

## Input Item Cc1nc2cc(Nc3nc(Nc4ccc(F)cc4)nc(N4CCN(C)CC4)n3)ccc2n1Cc1ccccc1 with inhibition of growth at 10 µM of 20% or above?
## Output 1 (yes)

## Input Item Cc1nc2cc(Nc3nc(Nc4ccc(O)cc4)nc(Nc4ccc(F)cc4)n3)ccc2n1Cc1ccccc1 with inhibition of growth at 10 µM of 20% or above?
## Output 0 (no)

----------
test system: 786-0; experiment: Cytotoxicity against human 786-0 cells after 48 hrs by SRB assay; format: functional; conditions: 786-0, 48 h, pooled result: one value given for 8 cell lines, strains, targets or settings
For each record, write down the corresponding GI50.
One number for each entry, in µM.

structure=Cc1nc2cc(Nc3nc(Nc4ccc(F)cc4)nc(N4CCN(C)CC4)n3)ccc2n1Cc1ccccc1 readoutunits=µM testresult=1.77
structure=Cc1nc2ccc(Nc3nc(NCCN4CCOCC4)nc(Nc4ccc(F)cc4)n3)cc2n1Cc1ccccc1 readoutunits=µM testresult=3.03
structure=Cc1nc2cc(Nc3nc(Nc4ccc(F)cc4)nc(-c4ccc(Cl)cc4)n3)ccc2n1Cc1ccccc1 readoutunits=µM testresult=11.5
structure=Cc1nc2cc(Nc3nc(Nc4ccc(F)cc4)nc(N4CCCC4)n3)ccc2n1Cc1ccccc1 readoutunits=µM testresult=1.75
structure=COc1ccc(-c2nc(Nc3ccc(F)cc3)nc(Nc3ccc4c(c3)nc(C)n4Cc3ccccc3)n2)cc1 readoutunits=µM testresult=3.4

Each compound below has a reported value. Please supply its GI50.
1. Cc1nc2ccc(Nc3nc(Cl)nc(Nc4ccc(F)cc4)n3)cc2n1Cc1ccccc1
2. Cc1nc2cc(Nc3nc(Nc4ccc(F)cc4)nc(-c4cccs4)n3)ccc2n1Cc1ccccc1

## Output
7.49
4.54
